MEASUREMENT_DESCRIPTION: Pharmacokinetics in female BALB/c nude mice bearing A375 xenografts, 1 day dosing (PK and PD study): plasma, tumor and brain concentrations, AUC
Format: in vivo
EXPERIMENTAL_SETUP: mouse, brain, po, 1.5 mg/kg, 1.5 mg/kg p.o. BID × 1 day; post 2nd dose; 4 h; read-out: Mean Concentration in Brain ± SEM
TEST_READOUT: concentration at 4 h (ng/g)
Write down the numeric answer in ng/g and omit the unit.

I have this molecule here, CCN(C)S(=O)(=O)Nc1ccc(F)c(Oc2ccc3ncn([C@H]4COC5(CCN(C6CC7(C6)CN(c6cc8c(cc6F)c(N6CCC(=O)NC6=O)nn8C)C7)CC5)C4)c(=O)c3c2)c1C#N [Compound 26] , and I need its recorded concentration at 4 h. 21.8

###

MEASUREMENT_DESCRIPTION: Example 9 pharmacokinetics assay for the PK and PD study Part I, II and III (plasma, tumor, liver)
Assay type: in vivo, BALB/c nude mice
EXPERIMENTAL_SETUP: mouse, plasma, po; 10 mg/kg, p.o., single dose; 1 h; ± SEM; read-out: Mean Concentration in Plasma
TEST_READOUT: concentration at 1 h (ng/mL)

(P) CCN(C)S(=O)(=O)Nc1ccc(F)c(Oc2ccc3ncn(C4CC5(C4)CN(C4CCC(c6cc7c(cc6F)c(N6CCC(=O)NC6=O)nn7C)CC4)C5)c(=O)c3c2)c1C#N (single isomer, unassigned)
(Q) Cn1nc(N2CCC(=O)NC2=O)c2cc(F)c(N3CC4(CC(N5CCC6(CC5)C[C@@H](n5cnc7ccc(Oc8c(F)ccc(NS(=O)(=O)N9CC[C@@H](F)C9)c8C#N)cc7c5=O)CO6)C4)C3)cc21
Between P and Q , which one shows the smaller concentration at 1 h number? Write down the label of the entry you select. P
(P: 2070 ng/mL, Q: 8880 ng/mL)

###

TARGET_SYSTEM: human bile salt export pump (BSEP) efflux transporter (Homo sapiens)
Construct: purchased SOLVO Biotechnology Charles River Laboratories, Szeged, Hungary; host or cells: HEK293 (inside out membrane vesicles)
Sequence (O95342 whole entry): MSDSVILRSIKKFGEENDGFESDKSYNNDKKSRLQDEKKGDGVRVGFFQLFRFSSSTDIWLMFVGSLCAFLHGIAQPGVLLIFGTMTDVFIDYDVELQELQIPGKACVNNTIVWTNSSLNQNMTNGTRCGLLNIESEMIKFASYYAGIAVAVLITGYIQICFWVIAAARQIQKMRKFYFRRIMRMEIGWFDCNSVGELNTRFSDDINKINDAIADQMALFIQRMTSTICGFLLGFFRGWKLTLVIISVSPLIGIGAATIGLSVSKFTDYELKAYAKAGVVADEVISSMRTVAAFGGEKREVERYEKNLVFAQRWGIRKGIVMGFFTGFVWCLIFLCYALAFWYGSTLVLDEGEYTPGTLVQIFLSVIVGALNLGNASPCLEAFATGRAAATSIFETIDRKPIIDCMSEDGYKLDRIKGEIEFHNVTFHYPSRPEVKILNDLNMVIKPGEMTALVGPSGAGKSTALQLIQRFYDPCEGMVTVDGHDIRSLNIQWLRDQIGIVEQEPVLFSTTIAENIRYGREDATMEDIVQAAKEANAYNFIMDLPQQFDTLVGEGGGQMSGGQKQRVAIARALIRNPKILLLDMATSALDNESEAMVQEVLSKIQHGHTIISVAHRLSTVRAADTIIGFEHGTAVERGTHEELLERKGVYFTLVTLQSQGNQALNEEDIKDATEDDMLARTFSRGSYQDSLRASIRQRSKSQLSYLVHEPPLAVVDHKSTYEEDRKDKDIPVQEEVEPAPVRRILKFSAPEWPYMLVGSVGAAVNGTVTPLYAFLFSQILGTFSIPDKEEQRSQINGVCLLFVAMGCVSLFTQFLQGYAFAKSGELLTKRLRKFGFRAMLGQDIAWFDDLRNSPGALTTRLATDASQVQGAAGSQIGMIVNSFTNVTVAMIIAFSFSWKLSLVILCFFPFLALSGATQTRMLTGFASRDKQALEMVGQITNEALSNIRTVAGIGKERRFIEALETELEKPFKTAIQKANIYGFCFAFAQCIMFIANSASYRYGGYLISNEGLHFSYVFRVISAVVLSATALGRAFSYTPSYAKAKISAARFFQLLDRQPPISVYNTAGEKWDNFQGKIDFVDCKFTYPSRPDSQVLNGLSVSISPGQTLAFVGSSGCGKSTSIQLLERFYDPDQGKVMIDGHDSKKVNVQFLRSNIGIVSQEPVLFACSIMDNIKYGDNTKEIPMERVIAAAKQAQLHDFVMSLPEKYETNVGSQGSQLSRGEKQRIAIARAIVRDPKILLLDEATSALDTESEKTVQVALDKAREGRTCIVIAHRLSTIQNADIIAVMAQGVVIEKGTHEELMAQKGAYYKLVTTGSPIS
MEASUREMENT_DESCRIPTION: BSEP Vesicular Transport Inhibition Assay (IC50 determination)
Type: biochemical
EXPERIMENTAL_SETUP: human BSEP (HEK293) vesicles; taurocholate 0.2 μM; 4 mM Mg-ATP; 10 concentrations, 1 replicate
TEST_READOUT: BSEP Inhibition/IC50 (µM)
Number in µM, nothing else.

Recorded BSEP Inhibition/IC50, per entry:
Which measured BSEP Inhibition/IC50 value corresponds to COC1CN(S(=O)(=O)Nc2ccc(F)c(Oc3ccc4ncn([C@H]5COC6(CCN(C7CC8(C7)CN(c7cc9c(cc7F)c(N7CCC(=O)NC7=O)nn9C)C8)CC6)C5)c(=O)c4c3)c2C#N)C1 [Compound 246] ? 8.79

I'd like to know its BSEP Inhibition/IC50. The compound in question is CCN(C)S(=O)(=O)Nc1ccc(F)c(Oc2ccc3ncn([C@H]4COC5(CCC(N6CC7(CN(c8ccc(NC9CCC(=O)NC9=O)cc8F)C7)C6)CC5)C4)c(=O)c3c2)c1C#N (stereo partly drawn) [Compound 30] 8.52

Continuing:
Quick check: BSEP Inhibition/IC50 of CCN(C)S(=O)(=O)Nc1ccc(F)c(Oc2ccc3ncn([C@H]4COC5(CCN(C6CCC(c7cc8c(cc7F)c(N7CCC(=O)NC7=O)nn8C)CC6F)CC5)C4)c(=O)c3c2)c1C#N (single isomer, unassigned) [Compound 28] ? 1.96

###

Here the recorded concentration at 24 h is given for each entry.
MEASUREMENT_DESCRIPTION: Example 8 pharmacokinetics assay for PKPD study (plasma, tumor, liver)
Assay type: in vivo, BALB/c nude mice
EXPERIMENTAL_SETUP: mouse, plasma, po, 10 mg/kg, p.o., single dose; 24 h; read-out: Concentration in Plasma (mean ± SEM)
Your answer should be a plain number; it is taken to be in ng/mL.

Consider the compound shown here: "CCN(C)S(=O)(=O)Nc1ccc(F)c(Oc2ccc3ncn([C@H]4COC5(CCN(C6CC7(C6)CN(c6cc8c(cc6F)c(N6CCC(=O)NC6=O)nn8C)C7)CC5)C4)c(=O)c3c2)c1C#N" What is its recorded concentration at 24 h? 162

Which value of concentration at 24 h has been reported for CCN(C)S(=O)(=O)Nc1ccc(F)c(Oc2ccc3ncn(C4CC5(CCN(C6CCC(c7cc8c(cc7F)c(N7CCC(=O)NC7=O)nn8C)CC6)CC5)C4)c(=O)c3c2)c1C#N (single isomer, unassigned) in the records? 1.27

###

MEASUREMENT_DESCRIPTION: Pharmacokinetics in female BALB/c nude mice bearing A375 xenografts, 1 day dosing (PK and PD study): plasma, tumor and brain concentrations, AUC
Assay type: in vivo
EXPERIMENTAL_SETUP: mouse, tumor, po, 5 mg/kg, 5 mg/kg p.o. BID × 1 day; post 2nd dose; 10 h; read-out: Mean Concentration in Tumor ± SEM
TEST_READOUT: concentration at 10 h (ng/g)
A number alone suffices; assume ng/g.

GET /values?readout=concentration at 10 h&item= CCN(C)S(=O)(=O)Nc1ccc(F)c(Oc2ccc3ncn(C4CC5(CCN(C6CC7(C6)CN(c6cc8c(cc6F)c(N6CCC(=O)NC6=O)nn8C)C7)CC5)C4)c(=O)c3c2)c1C#N (stereo not shown) 205

###

MEASUREMENT_DESCRIPTION: Pharmacokinetics in female BALB/c nude mice bearing A375 xenografts, 1 day dosing (PK and PD study): plasma, tumor and brain concentrations, AUC
Assay type: in vivo
EXPERIMENTAL_SETUP: mouse, plasma, po, 6 mg/kg, 6 mg/kg p.o. QD × 1 day; 0.25 h; read-out: Mean Concentration in Plasma ± SEM
TEST_READOUT: concentration at 0.25 h (ng/mL)
Only the number, expressed in ng/mL, is required.

Recorded concentration at 0.25 h of "CCN(C)S(=O)(=O)Nc1ccc(F)c(Oc2ccc3ncn([C@H]4COC5(CCN(C6CC7(C6)CN(c6cc8c(cc6F)c(N6CCC(=O)NC6=O)nn8C)C7)CC5)C4)c(=O)c3c2)c1C#N" , please. 3250

###

MEASUREMENT_DESCRIPTION: Pharmacokinetics after 21 days dosing in the efficacy study (plasma, tumor and brain concentrations; plasma AUC at steady state), Example 14
Type: in vivo, female BALB/c nude mice
EXPERIMENTAL_SETUP: mouse, plasma, po; 1 mg/kg p.o. TID x 21 days; 10 h; mean ± SEM
Protocol: Agents were tested in the A375 human melanoma xenografts. […] Dabrafenib, Compound 26 and Compound 141 in female BALB/c nude mice plasma (K2-EDTA), tumor and brain homogenate were analyzed by LC-MS/MS (Triple Quad 6500+ Low Mass). […]
TEST_READOUT: concentration at 10 h (ng/mL)
Number only, in ng/mL; omit the unit.

Any idea what concentration at 10 h was measured for CCN(C)S(=O)(=O)Nc1ccc(F)c(Oc2ccc3ncn(C4CC5(CCN(C6CC7(C6)CN(c6cc8c(cc6F)c(N6CCC(=O)NC6=O)nn8C)C7)CC5)C4)c(=O)c3c2)c1C#N (stereo not shown) ? 676

###

MEASUREMENT_DESCRIPTION: Example 6 pharmacokinetics assay for PKPD study (plasma, tumor, liver)
Format: in vivo, BALB/c nude mice
EXPERIMENTAL_SETUP: mouse, tumor, po; 35 mg/kg, single dose; 24 h; read-out: Concentration in Tumor (mean ± SEM)
Description: For the pharmacokinetic/pharmacodynamic (PKPD) study, compounds were tested in the A375 human melanoma xenografts. Known BRAF inhibitors encorafenib, and dabrafenib were used as positive controls. Encorafenib, dabrafenib, Compound 83, Compound 93, Compound 70, and Compound 54 were administered to BALB/c nude mice bearing A375 tumors on PG-D1 and dosed orally (PO) once. Encorafenib was dosed at 35 mg/kg. Dabrafenib was dosed at 100 mg/kg. […]
TEST_READOUT: concentration at 24 h (ng/g)
Field: numeric (ng/g). Do not append units.

Name the reported concentration at 24 h value associated with the compound COC(=O)N[C@@H](C)CNc1nccc(-c2cn(C(C)C)nc2-c2cc(Cl)cc(NS(C)(=O)=O)c2F)n1 [Encorafenib, encorafenib, reference compound] 2.63

###

MEASUREMENT_DESCRIPTION: Pharmacokinetics after 21 days dosing in the efficacy study (plasma, tumor and brain concentrations; plasma AUC at steady state), Example 14
Assay type: in vivo, female BALB/c nude mice
EXPERIMENTAL_SETUP: mouse, plasma, po; 6 mg/kg p.o. QD x 21 days; 0.5 h; mean ± SEM
TEST_READOUT: concentration at 0.5 h (ng/mL)
Entry rule: numbers only, all in ng/mL.

What concentration at 0.5 h value was documented for this compound, CCN(C)S(=O)(=O)Nc1ccc(F)c(Oc2ccc3ncn([C@H]4COC5(CCN(C6CC7(C6)CN(c6cc8c(cc6F)c(N6CCC(=O)NC6=O)nn8C)C7)CC5)C4)c(=O)c3c2)c1C#N [Compound 26] ? 9990
